Sourced from PubChem BioAssay AID2300

# TESTED_ON: Photoreceptor-specific nuclear receptor (Homo sapiens)
# ASSAY_OVERVIEW: inhibitors of NR2E3-RetCOR corepressor binding, primary screen, NR2E3 agonist project, biochemical, TR-FRET, GST-NR2E3, biotin-RetCOR (AID 2300);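 also: 0% = DMSO wells and 100% = biotin wells as full block of FRET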
# CONDITION_NOTES: 1536-well, at 4.78 µM, stronger effect = higher value
About 380 (0.12%) of roughly 320,000 compounds were called active. The sample as a whole holds a higher share of actives than the screen did.
ENDPOINT: inhibition of corepressor binding (%)
The figure you give is taken to be in %; do not add the unit.

These recorded examples may help you get a feel for the data.
// field: inhibition of corepressor binding; key: CCc1ccc(NC(=O)CN2CCC(C(=O)c3ccc(OC)cc3)CC2)cc1 ; value = 4.08

// field: inhibition of corepressor binding; key: CC(=O)c1cccc(NC(=O)CN2C(=O)c3cccnc3Oc3ccc(Cl)cc32)c1 ; value = 1.24

Others:
// field: inhibition of corepressor binding; key: O=c1cnnc(Nc2ccccc2F)[nH]1 ; value = 3.47

// field: inhibition of corepressor binding; key: COC(=O)C1=NN(c2ccccc2)C2C(=O)N(c3ccccc3OC)C(=O)C12 (configuration not stated) ; value = -1.01

// field: inhibition of corepressor binding; key: COc1ccccc1C(=O)Nc1ccnn1C1CCN(Cc2cnn(C)c2)CC1 ; value = -1.2

// field: inhibition of corepressor binding; key: Cc1ccn(C(CC(=O)c2ccc(Br)cc2)C(=O)O)n1 (configuration not stated) ; value = 0.75

// field: inhibition of corepressor binding; key: CCOc1cc(C(=O)Nc2ccc(S(=O)(=O)Nc3cnc4ccccc4n3)cc2)cc(OCC)c1OCC ; value = 0.9

---

inhibition of corepressor binding listing for selected compounds.
# TESTED_ON: Photoreceptor-specific nuclear receptor (Homo sapiens) (UniProt Q9Y5X4)
# Sequence (Q9Y5X4 whole entry, looked up): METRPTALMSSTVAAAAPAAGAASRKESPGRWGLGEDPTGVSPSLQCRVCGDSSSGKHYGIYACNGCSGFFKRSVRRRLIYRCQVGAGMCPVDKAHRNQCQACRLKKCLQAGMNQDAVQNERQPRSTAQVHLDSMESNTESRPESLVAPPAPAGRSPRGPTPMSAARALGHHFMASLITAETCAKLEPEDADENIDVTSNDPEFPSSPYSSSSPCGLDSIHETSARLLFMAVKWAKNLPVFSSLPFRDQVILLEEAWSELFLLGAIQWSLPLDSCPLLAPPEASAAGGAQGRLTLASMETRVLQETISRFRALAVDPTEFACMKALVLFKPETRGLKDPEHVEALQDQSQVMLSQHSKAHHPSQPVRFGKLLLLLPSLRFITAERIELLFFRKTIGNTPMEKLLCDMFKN
# ASSAY_OVERVIEW: inhibitors of NR2E3-RetCOR corepressor binding, primary screen, NR2E3 agonist project, biochemical, TR-FRET, GST-NR2E3, biotin-RetCOR (AID 2300);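 also: 0% = DMSO wells and 100% = biotin wells as full block of FRET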
# CONDITION_NOTES: 1536-well, at 4.78 µM, stronger effect = higher value
Hit rate of the full screen: of about 320,000 compounds, about 380 (0.12%) were called active. What follows is part of a selection rich in actives, with near analogues and random picks from the rest.
The figure you give is taken to be in %; do not add the unit.

These recorded examples may help you get a feel for the data.
// inhibition of corepressor binding (Photoreceptor-specific nuclear receptor (Homo sapiens) (UniProt Q9Y5X4)) for CCc1nn(CCCC(=O)NCc2ccc(C)cc2)c(=O)c2cc3occc3n12 = 1.62

// inhibition of corepressor binding (Photoreceptor-specific nuclear receptor (Homo sapiens) (UniProt Q9Y5X4)) for Cc1ccc(NC(=O)C2(N3CCC3=O)CCCCC2)cc1 = 3.49

// inhibition of corepressor binding (Photoreceptor-specific nuclear receptor (Homo sapiens) (UniProt Q9Y5X4)) for Cc1csc(Nc2ccc(Cl)cc2)[n+]1-c1ccc(Cl)cc1 = -0.2

Others:
// inhibition of corepressor binding (Photoreceptor-specific nuclear receptor (Homo sapiens) (UniProt Q9Y5X4)) for CCN(CC)Cc1csc2ccc(Br)cc12 = -3.8

// inhibition of corepressor binding (Photoreceptor-specific nuclear receptor (Homo sapiens) (UniProt Q9Y5X4)) for CC(C)CCNC(=O)C1CCCN(S(=O)(=O)c2ccc(F)cc2)C1 (stereo unspecified) = 2.4

// inhibition of corepressor binding (Photoreceptor-specific nuclear receptor (Homo sapiens) (UniProt Q9Y5X4)) for CC1(C)CC(O)C(CCC(O)c2ccccc2)C(C)(C)N1 (stereo unspecified) = 0.53

// inhibition of corepressor binding (Photoreceptor-specific nuclear receptor (Homo sapiens) (UniProt Q9Y5X4)) for CN(Cc1ccccc1Cl)C(=O)C1CCC(=O)N(CCc2cccc(F)c2)C1 (stereo unspecified) = -0.98

// inhibition of corepressor binding (Photoreceptor-specific nuclear receptor (Homo sapiens) (UniProt Q9Y5X4)) for CC1CCN(S(=O)(=O)c2ccc3c(c2)n(C)c(=O)n3C)CC1 = 0.8

// inhibition of corepressor binding (Photoreceptor-specific nuclear receptor (Homo sapiens) (UniProt Q9Y5X4)) for COCCNC(=O)CN1C(=O)CSc2ncccc21 = 4.79

// inhibition of corepressor binding (Photoreceptor-specific nuclear receptor (Homo sapiens) (UniProt Q9Y5X4)) for Cc1coc2c(O)cc3c(c12)OC1(N2CCCCC2)C(=O)NCCCC31 (stereo unspecified) = -2.68

// inhibition of corepressor binding (Photoreceptor-specific nuclear receptor (Homo sapiens) (UniProt Q9Y5X4)) for CC(=O)COc1ccc2c(-c3ccccc3)cc(=O)oc2c1 = 3.24

// inhibition of corepressor binding (Photoreceptor-specific nuclear receptor (Homo sapiens) (UniProt Q9Y5X4)) for CCCCCCSc1nsc(N)n1 = 3.46

// inhibition of corepressor binding (Photoreceptor-specific nuclear receptor (Homo sapiens) (UniProt Q9Y5X4)) for CC(C)C[C@@H](N)c1nnc(SCC(=O)c2ccc(Cl)cc2)o1 = -0.27

// inhibition of corepressor binding (Photoreceptor-specific nuclear receptor (Homo sapiens) (UniProt Q9Y5X4)) for CC(C)(C)NC(=O)/C(=C/c1cccnc1)NC(=O)c1ccco1 = -5.01

// inhibition of corepressor binding (Photoreceptor-specific nuclear receptor (Homo sapiens) (UniProt Q9Y5X4)) for COc1cc(C(=O)Nc2ncccc2C)ccc1OCC(=O)N1CCOCC1 = 2.79

---

# TESTED_ON: Photoreceptor-specific nuclear receptor (Homo sapiens) (UniProt Q9Y5X4)
# ASSAY_OVERVIEW: inhibitors of NR2E3-RetCOR corepressor binding, primary screen, NR2E3 agonist project, biochemical, TR-FRET, GST-NR2E3, biotin-RetCOR (AID 2300);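 also: 0% = DMSO wells and 100% = biotin wells as full block of FRET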
# CONDITION_NOTES: 1536-well, at 4.78 µM
Hit rate of the full screen: of about 320,000 compounds, about 380 (0.12%) were called active.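 Rule for the calls: active = percent inhibition above the cutoff of mean plus 3 SD of all tested compounds, set per screening campaign (cut at about 20% in these data); inactive = the rest.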 Many of the other results were omitted from the sample, so actives are more common in it than they were.
# output must be one of active, inactive

These recorded examples may help you get a feel for the data.
Query block: Check the results log: what was the call for COc1cc2[nH]c(=S)n(Cc3ccc(C)o3)c(=O)c2cc1OC ?
Result block: active

Query block: Check the results log: what was the call for O=C1C(=O)N(CCCN2CCOCC2)C(c2ccc([N+](=O)[O-])cc2)/C1=C(\O)c1ccc2c(c1)OCCO2 (stereo not given) ?
Result block: inactive

Query block: Check the results log: what was the call for O=C(c1ccc(Br)o1)N(c1ccccn1)C1CCCCC1 ?
Result block: inactive

Others:
Query block: Check the results log: what was the call for COc1ccc(/C=C/C(=O)NC(=S)N2CCCC(C(N)=O)C2)cc1 (stereo not given) ?
Result block: inactive

Query block: Check the results log: what was the call for O=C1C(=O)N(CCN2CCOCC2)C(c2cccc(Cl)c2)/C1=C(/O)c1ccc2c(c1)OCO2 (stereo not given) ?
Result block: active

Query block: Check the results log: what was the call for NC(=O)c1cc(S(=O)(=O)NCCCc2ccco2)cs1 ?
Result block: inactive

Query block: Check the results log: what was the call for CCCCSc1nc2c(c(=O)n1CC)SC(C)C2 (stereo not given) ?
Result block: inactive

Query block: Check the results log: what was the call for COc1cc2[nH]c(=S)n(Cc3ccc(F)cc3)c(=O)c2cc1OC ?
Result block: inactive

Query block: Check the results log: what was the call for O=C1C(=O)N(CCN2CCOCC2)C(c2ccccn2)/C1=C(/O)c1ccc(Cl)cc1 (stereo not given) ?
Result block: inactive

Query block: Check the results log: what was the call for Cc1ccc(C(C)C)c(OCc2nnc(SCC(=O)Nc3nccs3)n2C)c1 ?
Result block: inactive

---

# TESTED_ON: Photoreceptor-specific nuclear receptor (Homo sapiens)
# ASSAY_OVERVIEW: inhibitors of NR2E3-RetCOR corepressor binding, primary screen, NR2E3 agonist project, biochemical, TR-FRET, GST-NR2E3, biotin-RetCOR (AID 2300);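 also: 0% = DMSO wells and 100% = biotin wells as full block of FRET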
# CONDITION_NOTES: 1536-well, at 4.78 µM, stronger effect = higher value
The campaign covered roughly 320,000 compounds. About 380 (0.12%) were called active. What follows is part of a selection rich in actives, with near analogues and random picks from the rest.
inhibition of corepressor binding listing for selected compounds.
The figure you give is taken to be in %; do not add the unit.

These recorded examples may help you get a feel for the data.
// field: inhibition of corepressor binding; key: O=C(COC(=O)c1ccc(F)cc1F)Nc1ncccn1 ; value = 8.41

// field: inhibition of corepressor binding; key: CN(Cc1ccccc1F)C(=O)C(Cc1ccccc1)NC(=O)c1ccccc1 (stereo not drawn) ; value = 0.68

// field: inhibition of corepressor binding; key: CC[N+](C)(CC)CCC[n+]1c(-c2ccccc2)c2cc(N)ccc2c2ccc(N)cc21 ; value = 41.5

// field: inhibition of corepressor binding; key: CCc1cc2c(SCC(=O)Nc3ncc(Cl)c(C)c3Cl)ncnc2s1 ; value = 2.24

// field: inhibition of corepressor binding; key: O=C(/C=N/O)Nc1ccccc1 ; value = -4.21

// field: inhibition of corepressor binding; key: Cc1ccccc1NC(=O)COc1cccc2c1CCNC2=O ; value = -2.78

Others:
// field: inhibition of corepressor binding; key: COc1cccc(CNC(=O)c2cccnc2Sc2ccc(Cl)cc2)c1 ; value = 0.2

// field: inhibition of corepressor binding; key: OC(c1ccccc1)c1nccn1Cc1ccccc1 (stereo not drawn) ; value = -1.45

// field: inhibition of corepressor binding; key: COC(=O)C1(C)NC(c2ccccc2OC)C2C(=O)N(c3ccccc3)C(=O)C21 (stereo not drawn) ; value = 1.42

// field: inhibition of corepressor binding; key: CC(C)CN(C(=O)CSc1nncn1C)C1CCS(=O)(=O)C1 (stereo not drawn) ; value = 2.15

// field: inhibition of corepressor binding; key: Cc1cc(C)n(CC(C)NCc2c(C(=O)N3CCOCC3)nc3c(C)cccn23)n1 (stereo not drawn) ; value = -0.74

// field: inhibition of corepressor binding; key: Cc1ccc(CN(N=Nc2nonc2N)c2nonc2N)c(C)c1 ; value = -0.3

// field: inhibition of corepressor binding; key: N#Cc1ccccc1Sc1ccccc1C(=O)OCC(=O)NC1CCCCC1 ; value = 26.6

// field: inhibition of corepressor binding; key: CN(Cc1ccccc1)Cc1ccccc1F ; value = 24.1

// field: inhibition of corepressor binding; key: N=c1n(CCc2ccccc2)c2ccccc2n1Cc1ccccc1F ; value = -5.83
